Molecular target: RUNX1 (UniProt Q01196)
Sequence (Q01196 whole entry): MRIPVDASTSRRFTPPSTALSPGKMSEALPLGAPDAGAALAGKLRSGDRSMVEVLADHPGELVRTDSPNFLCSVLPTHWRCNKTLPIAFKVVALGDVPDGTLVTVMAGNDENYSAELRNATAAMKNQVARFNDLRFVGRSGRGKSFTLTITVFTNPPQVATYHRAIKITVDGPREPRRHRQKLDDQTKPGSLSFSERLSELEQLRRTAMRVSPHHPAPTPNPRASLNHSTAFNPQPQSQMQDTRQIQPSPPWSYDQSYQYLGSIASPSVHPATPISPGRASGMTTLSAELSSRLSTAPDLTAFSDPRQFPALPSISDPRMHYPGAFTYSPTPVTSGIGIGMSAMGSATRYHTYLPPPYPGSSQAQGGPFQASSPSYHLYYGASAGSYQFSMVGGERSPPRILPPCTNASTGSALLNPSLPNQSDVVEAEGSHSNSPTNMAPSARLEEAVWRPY
Test: RUNX1 binding intensity (PBM fluorescence) in presence of ETS1, normalised to RUNX1-only experiment (arbitrary fluorescence units); higher = stronger binding;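 also: Full-length recombinant human ETS1 or RUNX1 bound to double-stranded 36-bp genomic probes on microarrays, detected by protein-specific primary antibody and Alexa488 secondary, spot fluorescence as median of four replicate spots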
Details: RUNX1 concentration 2 nM; ETS1 concentration 25 nM
Each entry gets Not satisfied if its RUNX1 binding intensity stays under 1000, and Satisfied if its RUNX1 binding intensity is 1000 or above.

Observe how each entry below is paired with its result.
GGAACAGGAAAAGCCTCCGGCAGCCCCTGCGGGCGG = Not satisfied
GGGGGAGCAAGCGCCTTCCGCGGTCGCTGGGGGGAG = Not satisfied
GGGGAACGGAAGCTGCTGTCGTTACTGGCGGTTGTA = Not satisfied
AAATACCAGCCCACTTCCTGTGGCTTTGATCTGCAG = Satisfied
GCCGGAAGCCACGCAGGGCCACGTCTGCGGTTCTGA = Satisfied
ACGTACGGGATGTGGGAGGTTTGTTTTGACCACACC = Satisfied
GGTGGCAACATCCTGGGGAGGGGAACCCACAGGGGA = Satisfied
ATGCTAGAAAGCAGGAAGCCACAGACACGCCCCAAC = Not satisfied
AATCTGAAACAGGAAATAAGTCTGTGGTTGTGTGTT = Satisfied
TCCCTCATGAGCTTCTTCCGCCCGCAACACGAGACT = Satisfied

Req: Kindly determine if RUNX1 binding intensity recorded for AACACCTCACACTTCCTGCCCACAAGATAAGAGCCT is above or exactly 1000.
Resp: Satisfied

Req: Kindly determine if RUNX1 binding intensity recorded for TGGAGTGGAGGAAGTGGTGTTACCACAGCTCAGAGG is above or exactly 1000.
Resp: Satisfied
